Target: T1, recombinant human KLK5 C-6His (Novoprotein, Catalog No. C415) (human, UniProt Q9Y337 23-293)
T1 construct: Bought protein; also called KLK5 protein (Novoprotein); not shown: C-terminal 6xHis tag ('C-6His')
Assay: ELISA on captured KLK5 C-6His; binder incubated in human serum, day 7
MEASUREMENT TYPE: EC50 (nM)

binder="Spink9-30.Fc (SEQ ID NO: 55) (Fc fusion, Mutant SPINK9 domain fused directly to a C-terminal IgG Fc) IECAKQTKQMVDCSHYKKLPPEQVSWCTREYDPICGSDGKTYKNDCFFCSKVKKTDGTLKFVHFGKCEPKSCDKTHTCPPCPAPEAAGGPSVFLFPPKPKDTLMISRTPEVTCVVVDVSHEDPEVKFNWYVDGVEVHNAKTKPREEQYNSTYRVVSVLTVLHQDWLNGKEYKCKVSNKALPAPIEKTISKAKGQPREPQVYTLPPSREEMTKNQVSLTCLVKGFYPSDIAVEWESNGQPENNYKTTPPVLDSDGSFFLYSKLTVDKSRWQQGNVFSCSVLHEALHSHYTQKSLSLSPGK" reported=0.1
binder="Spink9-186.Fc (SEQ ID NO: 58) (Fc fusion, Mutant SPINK9 domain fused directly to a C-terminal IgG Fc) IECAKQTKQMVDCSHYKKLPPAQLIYCTKEYDPICGSDGKTYKNDCFFCSKVKKTDGTLKFVHFGKCEPKSCDKTHTCPPCPAPEAAGGPSVFLFPPKPKDTLMISRTPEVTCVVVDVSHEDPEVKFNWYVDGVEVHNAKTKPREEQYNSTYRVVSVLTVLHQDWLNGKEYKCKVSNKALPAPIEKTISKAKGQPREPQVYTLPPSREEMTKNQVSLTCLVKGFYPSDIAVEWESNGQPENNYKTTPPVLDSDGSFFLYSKLTVDKSRWQQGNVFSCSVLHEALHSHYTQKSLSLSPGK" reported=0.12
binder="Spink9-112.K62G.Fc (SEQ ID NO: 56) (Fc fusion, Mutant SPINK9 domain fused directly to a C-terminal IgG Fc) IECAKQTKQMVDCSHYKKLPPEQELYCTREYDPICGSDGKTYGNDCFFCSKVKKTDGTLKFVHFGKCEPKSCDKTHTCPPCPAPEAAGGPSVFLFPPKPKDTLMISRTPEVTCVVVDVSHEDPEVKFNWYVDGVEVHNAKTKPREEQYNSTYRVVSVLTVLHQDWLNGKEYKCKVSNKALPAPIEKTISKAKGQPREPQVYTLPPSREEMTKNQVSLTCLVKGFYPSDIAVEWESNGQPENNYKTTPPVLDSDGSFFLYSKLTVDKSRWQQGNVFSCSVLHEALHSHYTQKSLSLSPGK" reported=0.17
binder="Spink9-183.Fc (SEQ ID NO: 57) (Fc fusion, Mutant SPINK9 domain fused directly to a C-terminal IgG Fc) IECAKQTKQMVDCSHYKKLPPQQQAYCTRDYDPICGSDGKTYKNDCFFCSKVKKTDGTLKFVHFGKCEPKSCDKTHTCPPCPAPEAAGGPSVFLFPPKPKDTLMISRTPEVTCVVVDVSHEDPEVKFNWYVDGVEVHNAKTKPREEQYNSTYRVVSVLTVLHQDWLNGKEYKCKVSNKALPAPIEKTISKAKGQPREPQVYTLPPSREEMTKNQVSLTCLVKGFYPSDIAVEWESNGQPENNYKTTPPVLDSDGSFFLYSKLTVDKSRWQQGNVFSCSVLHEALHSHYTQKSLSLSPGK" reported=0.11
